# assay: in vitro
# conditions used: dog, microsomes, pH 7.47
experimental readout: half-life at 1 µM (min)
Output spec: scalar in min, unitless text.

# half-life at 1 µM (compound: CCOc1cccc(Nc2nn(C)c3c2Cc2cc(OCC)c(OCC(=O)NO)cc2-3)c1 ) is 7.5

# half-life at 1 µM (compound: CCOc1cccc(Nc2nn(C)c3c2Cc2cc(OCC)c(OCC(N)=O)cc2-3)c1 ) is 24.7

---

# assay: In vivo pharmacokinetic test, drug concentration in blood plasma by LC-MS/MS
# Parameters: species or system SD rats
# conditions used: male, SD, rat, plasma, po, 10 mg/kg, male SD rats, single oral 10 mg/kg, animal 202M; read-out: MRTINF—pred
experimental readout: MRT inf

# MRT inf (compound: CCOc1cccc(Nc2nn(C)c3c2Cc2cc(OCC)c(OCC(N)=O)cc2-3)c1 [LL-01] ) is 5.87 h

---

# assay: In vivo pharmacokinetic test, drug concentration in blood plasma by LC-MS/MS
# Design: species or system SD rats
# conditions used: SD, rat, plasma, po, 10 mg/kg, SD rats, oral 10 mg/kg, 0.5 h, animal 202M
experimental readout: concentration at 0.5 h (ng/mL)
Output spec: scalar in ng/mL, unitless text.

# concentration at 0.5 h (compound: CCOc1cccc(Nc2nn(C)c3c2Cc2cc(OCC)c(OCC(N)=O)cc2-3)c1 ) is 959

---

# assay: In vivo pharmacokinetic test, drug concentration in blood plasma by LC-MS/MS
# Set-up: species or system SD rats
# conditions used: male, SD, rat, plasma, iv, 1 mg/kg, male SD rats, single intravenous 1 mg/kg, animal 102M
experimental readout: AUC(0-t)
Field note: include the unit after the figure.

# AUC(0-t) (compound: CCOc1cccc(Nc2nn(C)c3c2Cc2cc(OCC)c(OCC(N)=O)cc2-3)c1 [LL-01] ) is 2740 ng·h/mL

---

# assay: In vivo pharmacokinetic test, drug concentration in blood plasma by LC-MS/MS
# Design: species or system SD rats
# conditions used: SD, rat, plasma, po, 10 mg/kg, SD rats, oral 10 mg/kg, 1 h, Mean
experimental readout: concentration at 1 h (ng/mL)
Output spec: scalar in ng/mL, unitless text.

# concentration at 1 h (compound: CCOc1cccc(Nc2nn(C)c3c2Cc2cc(OCC)c(OCC(N)=O)cc2-3)c1 ) is 917

---

# assay: In vivo pharmacokinetic test, drug concentration in blood plasma by LC-MS/MS
# Parameters: species or system SD rats
# conditions used: male, SD, rat, plasma, iv, 1 mg/kg, SD rats, intravenous 1 mg/kg, 8 h, animal 103M
# From the text: 2. Test animal: SD rats, which are 284-304 g before the test, and bought from Shanghai Xipuer-Bikai laboratory animal Co., Ltd. with production license No. SCXK (Hu) 2013-0016, and laboratory animal certificate Nos. 2008001658223 and 2008001658296. […] The content of compound LL-01 in SD rat blood plasma is detected by use of LC-MS/MS method. […]
experimental readout: concentration at 8 h (ng/mL)
Output spec: scalar in ng/mL, unitless text.

# concentration at 8 h (molecule: CCOc1cccc(Nc2nn(C)c3c2Cc2cc(OCC)c(OCC(N)=O)cc2-3)c1 ) is 5.6

---

# assay: MDCK cell permeability test
# conditions used: dog, MDCK, Apparent permeability coefficient A→B, 90 min; 3rd line of the compound (condition not given)
experimental readout: Papp A→B at 90 min, 10 µM
Field note: include the unit after the figure.

# Papp A→B at 90 min, 10 µM (compound: CCOc1cccc(Nc2nn(C)c3c2Cc2cc(OCC)c(OCC(N)=O)cc2-3)c1 ) is 18 ×10⁻⁶ cm/s
